Listed below: Ki values for each entry.
- System Tested: hMC5-R (Homo sapiens)
- Construct: expressed in transfected cells; host or cells: CHO-K1
- Sequence (P33032 whole entry): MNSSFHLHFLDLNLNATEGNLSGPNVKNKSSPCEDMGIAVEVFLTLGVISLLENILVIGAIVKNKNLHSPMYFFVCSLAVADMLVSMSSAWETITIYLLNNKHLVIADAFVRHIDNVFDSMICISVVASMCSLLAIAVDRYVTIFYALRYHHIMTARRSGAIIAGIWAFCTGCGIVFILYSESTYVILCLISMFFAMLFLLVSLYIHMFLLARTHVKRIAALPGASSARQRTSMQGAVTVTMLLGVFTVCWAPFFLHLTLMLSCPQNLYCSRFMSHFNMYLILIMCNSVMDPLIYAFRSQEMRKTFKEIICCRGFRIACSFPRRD
- Assay Details: Radioligand binding assay, [125I]-NDP-α-MSH competition, CHO-K1 membranes
- Study Conditions: Table 5; read-out: Ki hMC5-R
Bridge positions count the residues as written; N and C are the ends. Square brackets hold non-standard residues; d marks the D form. Peptide text beside a SMILES is read from it. 2Nal = N[C@@H](Cc1ccc2ccccc2c1)C(=O)O; d2Nal = N[C@H](Cc1ccc2ccccc2c1)C(=O)O; hArg = N=C(N)NCCCC[C@H](N)C(=O)O; Nle = CCCC[C@H](N)C(=O)O; βAla = NCCC(=O)O
Number in nM, nothing else.

# Molecule, Ki (nM)
records = [
    ("CCCC[C@H](NC(C)=O)C(=O)N[C@H]1CSSC[C@@H](C(N)=O)NC(=O)[C@H](Cc2ccc3ccccc3c2)NC(=O)[C@H](CCCNC(=N)N)NC(=O)[C@@H](Cc2ccc3ccccc3c2)NC(=O)[C@H](Cc2c[nH]cn2)NC(=O)[C@@H](C)NC1=O (Ac-[Nle]C[dA]H[d2Nal]R[2Nal]C-NH2; disulfide 2-8)", 94.6),
]

Let us move to another entry and its Ki.
Record C[C@@H](O)[C@H](NC(=O)[C@H]1CSSC[C@H](NC(=O)[C@H](N)Cc2ccccc2)C(=O)N[C@@H](Cc2c[nH]cn2)C(=O)N[C@H](Cc2ccccc2)C(=O)N[C@@H](CCCCNC(=N)N)C(=O)N[C@@H](Cc2c[nH]c3ccccc23)C(=O)NCCC(=O)N1)C(N)=O (H-[dF]CH[dF][hArg]W[βAla][dC]T-NH2; disulfide 2-8) / hMC5-R (Homo sapiens), Ki recorded as 521

* * *

- System Tested: hMC3-R (Homo sapiens, UniProt P41968)
- Construct: expressed in transfected cells; host or cells: CHO-K1
- Sequence (P41968 whole entry): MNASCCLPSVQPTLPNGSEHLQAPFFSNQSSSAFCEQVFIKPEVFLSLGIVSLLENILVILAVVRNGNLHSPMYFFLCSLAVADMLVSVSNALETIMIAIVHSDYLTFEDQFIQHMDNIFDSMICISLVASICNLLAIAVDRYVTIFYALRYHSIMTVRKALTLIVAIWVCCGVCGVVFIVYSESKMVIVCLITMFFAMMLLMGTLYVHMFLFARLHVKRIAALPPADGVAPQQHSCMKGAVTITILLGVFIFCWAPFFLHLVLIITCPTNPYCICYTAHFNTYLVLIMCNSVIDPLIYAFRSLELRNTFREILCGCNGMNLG
- Assay Details: cyclic AMP bioassay (ECL) in CHO-K1 cells
- Format: cell-based
- Study Conditions: Table 9C/9D, antagonist potency by Schild analysis; read-out: Kb hMC3-R
Bridge positions count the residues as written; N and C are the ends. Square brackets hold non-standard residues; d marks the D form. Peptide text beside a SMILES is read from it. 1Nal = N[C@@H](Cc1cccc2ccccc12)C(=O)O; d2Nal = N[C@H](Cc1ccc2ccccc2c1)C(=O)O; Nle = CCCC[C@H](N)C(=O)O; Ahx = NCCCCCC(=O)O; GABA = NCCCC(=O)O
Measured Attribute: Kb (nM)

Sample answers from the record:
# Compound, Kb, nM
records = [
    ("CCCC[C@H](NC(C)=O)C(=O)N[C@H]1CSSC[C@@H](C(N)=O)NC(=O)CCCCCNC(=O)[C@H](Cc2c[nH]c3ccccc23)NC(=O)[C@H](CCCNC(=N)N)NC(=O)[C@@H](Cc2ccc3ccccc3c2)NC(=O)[C@H](Cc2c[nH]cn2)NC1=O (Ac-[Nle]CH[d2Nal]RW[Ahx]C-NH2; disulfide 2-8 (inferred))", 10.8),
    ("CCCC[C@H](NC(C)=O)C(=O)N[C@H]1CSSC[C@@H](C(N)=O)NC(=O)CCCNC(=O)[C@H](Cc2c[nH]c3ccccc23)NC(=O)[C@H](CCCNC(=N)N)NC(=O)[C@@H](Cc2ccc3ccccc3c2)NC(=O)[C@H](Cc2c[nH]cn2)NC1=O (Ac-[Nle]CH[d2Nal]RW[GABA]C-NH2; disulfide 2-8)", 18.4),
    ("CCCC[C@H](NC(C)=O)C(=O)N[C@H]1CSSC[C@@H](C(N)=O)NC(=O)[C@H](Cc2cccc3ccccc23)NC(=O)[C@H](CCCNC(=N)N)NC(=O)[C@@H](Cc2ccc3ccccc3c2)NC(=O)[C@H](Cc2c[nH]cn2)NC(=O)[C@@H](C)NC1=O (Ac-[Nle]C[dA]H[d2Nal]R[1Nal]C-NH2; disulfide 2-8)", 61.5),
]

[I] CC(=O)N[C@@H](CC1CCCCC1)C(=O)N[C@H]1CC(=O)NCCCC[C@@H](C(N)=O)NC(=O)CCCNC(=O)[C@H](Cc2c[nH]c3ccccc23)NC(=O)[C@H](CCCNC(=N)N)NC(=O)[C@@H](Cc2ccc3ccccc3c2)NC(=O)[C@H](Cc2c[nH]cn2)NC1=O
[II] CC(=O)N[C@@H](CCc1ccccc1)C(=O)N[C@H]1CC(=O)NCCCC[C@@H](C(N)=O)NC(=O)CCCNC(=O)[C@H](Cc2c[nH]c3ccccc23)NC(=O)[C@H](CCCNC(=N)N)NC(=O)[C@@H](Cc2ccc3ccccc3c2)NC(=O)[C@H](Cc2c[nH]cn2)NC1=O
Lab note: check whether I or II has the lower measured Kb. # answer = label of selected item I
(I: 3.02 nM, II: 9.32 nM)
